Cited source: the supplement of paper PMC7877785

For each of the sequences below, state its self-splicing fitness (ln).
assay procedure: self-splicing fitness, log relative to wild type (ln ratio); higher = more splicing; Tetrahymena group I intron in knt gene, E. coli kanamycin selection, DiMSum; sequences stand for … in CUCUCU…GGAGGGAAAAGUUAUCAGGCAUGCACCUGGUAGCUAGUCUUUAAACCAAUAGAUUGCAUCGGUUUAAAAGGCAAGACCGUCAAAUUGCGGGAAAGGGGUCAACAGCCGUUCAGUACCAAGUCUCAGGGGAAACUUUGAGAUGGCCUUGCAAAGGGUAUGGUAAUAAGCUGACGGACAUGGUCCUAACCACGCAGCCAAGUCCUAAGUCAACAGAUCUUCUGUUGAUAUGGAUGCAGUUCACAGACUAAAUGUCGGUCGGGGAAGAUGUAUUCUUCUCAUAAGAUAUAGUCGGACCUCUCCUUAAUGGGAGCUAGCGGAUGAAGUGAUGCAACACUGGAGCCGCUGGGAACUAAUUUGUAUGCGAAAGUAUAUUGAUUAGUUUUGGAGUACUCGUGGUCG;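 note: selection with 25 µg/mL kanamycin versus none on LB agar overnight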
assay conditions: 30 °C
Form rule: numeric answer, no unit written next to it.

Enquiry: Dear colleague, please send me the reported self-splicing fitness (ln) for CGUAAGCAAUAUUACGGAUU when you can.
Return: -3.61

Enquiry: Return self-splicing fitness (ln) (reported value) for this sequence: GUUAAGCAAUAUUACGCUGC
Return: -3.43

Enquiry: Give the reported value of self-splicing fitness (ln) for this record: UGUAAGCAAUAUUACGCAAU
Return: -3.44

Enquiry: Respond only with self-splicing fitness (ln) recorded for CUUUAGCAAUAUUACGAUCU
Return: -3.2

Enquiry: Assign self-splicing fitness (ln) to the following record: CAACAGCAAUAUUACGUUUA
Return: -1.62

Enquiry: Name the recorded self-splicing fitness (ln) of the item UCAAAGCAAUAUUACGGAAG in your answer.
Return: -2.03

Enquiry: Give the reported value of self-splicing fitness (ln) for this record: CUCUAGCAAUAUUACGGAGU
Return: -3.04

Enquiry: Specify reported self-splicing fitness (ln) for the sequence shown: CAGAAGCAAUAUUACGCAGC
Return: -3.43

Enquiry: Return self-splicing fitness (ln) for the following sequence: AUUUAGCAAUAUUACGCUAA
Return: -2.13

Enquiry: State, in one line, measured self-splicing fitness (ln) of GUCAAGCAAUAUUACGUAUU
Return: -2.98

Enquiry: Output self-splicing fitness (ln) of UCGAAGCAAUAUUACGGCAG
Return: -2.11

Enquiry: Look up and state reported self-splicing fitness (ln) for CACUAGCAAUAUUACGUGGA
Return: -3.76

Enquiry: Complete the entry with self-splicing fitness (ln) for CCAUAGCAAUAUUACGAGCA
Return: -3.11

Enquiry: Quote self-splicing fitness (ln) reported for UACUAGCAAUAUUACGACGU please.
Return: -2.22

Enquiry: Complete the entry with self-splicing fitness (ln) for CUGAAGCAAUAUUACGAAGG
Return: -0.457

Enquiry: Return self-splicing fitness (ln) (reported value) for this sequence: CCUCAGCAAUAUUACGACCU
Return: -2.59
